# TARGET_OR_TEST_SYSTEM: human mOR (Homo sapiens (Human))
# Sequence (P35372 whole entry): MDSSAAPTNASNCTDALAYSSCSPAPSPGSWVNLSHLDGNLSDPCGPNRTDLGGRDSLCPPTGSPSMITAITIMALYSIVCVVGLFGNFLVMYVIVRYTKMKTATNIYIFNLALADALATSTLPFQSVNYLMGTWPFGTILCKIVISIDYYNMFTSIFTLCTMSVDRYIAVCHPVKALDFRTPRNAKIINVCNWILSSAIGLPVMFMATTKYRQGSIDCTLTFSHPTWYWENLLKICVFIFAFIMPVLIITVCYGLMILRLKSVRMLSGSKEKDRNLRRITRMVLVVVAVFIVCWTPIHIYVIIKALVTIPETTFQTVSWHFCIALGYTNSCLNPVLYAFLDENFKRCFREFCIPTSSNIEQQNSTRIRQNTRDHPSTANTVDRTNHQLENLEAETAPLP
# EXPERIMENTAL_PROTOCOL: cell-based
# STATED_CONDITIONS: CHO Tag-lite human mOR stable cell line; forskolin 4 μM and DAMGO at EC90; read-out: mOR cAMP Antagonist Assay IC50
pIC50: −log10 of the molar value.
READOUT_TYPE: pIC50

Observe how each entry below is paired with its result.
Cc1cc([C@@H](CC(=O)NC[C@H](Cc2ccc3[nH]ncc3c2)N(C)C)C2(C(F)(F)F)CC2)ccn1; > 6.52
Cc1ncc([C@@H](CC(=O)NC[C@H](Cc2cc3cn[nH]c3cc2Cl)N(C)C)C2(C(F)(F)F)CC2)cn1; > 6.52
CNC(=O)c1ccc(C[C@@H](CNC(=O)C[C@@H](c2ccncc2)C2(C(F)(F)F)CC2)N(C)C)c(Cl)c1F (single isomer, unassigned) [Compound 111]; > 6.52
CN[C@H](CNC(=O)C[C@H](c1cccnc1)C1(C(F)(F)F)CC1)Cc1ccc2[nH]ncc2c1; 5.52 to 6.52
CN(C)[C@H](CNC(=O)C[C@H](c1ccccc1)C1CC1)Cc1ccc2[nH]ncc2c1; > 6.52

stdin: For the compound Cc1cc(O)cc(C)c1C[C@@H](CNC(=O)C[C@H](c1ccccc1)C1CC1)N(C)C , what pIC50 is on record?
stdout: > 6.52

stdin: Okay, and Cc1ccc([C@H](CC(=O)NC[C@H](Cc2ccc(C(N)=O)c(F)c2Cl)N(C)C)C2(C(F)(F)F)CC2)cn1 ?
stdout: < 5.52

stdin: Okay, and Cc1ncc([C@@H](CC(=O)NC[C@H](Cc2ccc(O)cc2)N(C)C)C2CC2)cn1 ?
stdout: 5.52 to 6.52

stdin: Okay, and CN(C)[C@H](CNC(=O)C[C@@H](CC1CC1)c1cncnc1)Cc1ccc(C(N)=O)c(F)c1 ?
stdout: > 6.52

stdin: Okay, and CC(C)C[C@H](CC(=O)NC[C@H](Cc1ccc(C(N)=O)c(F)c1)N(C)C)c1cccnc1 ?
stdout: > 6.52

stdin: Okay, and Cc1cc(C(N)=O)cc(C)c1C[C@@H](CNC(=O)C[C@@H](c1ccccc1)C1(C(F)(F)F)CC1)N(C)C ?
stdout: < 5.52

stdin: Okay, and Cc1cc(C(N)=O)cc(C)c1C[C@@H](CNC(=O)C1CC1c1ncccn1)N(C)C (stereo partly drawn) ?
stdout: 5.52 to 6.52

----------
# TARGET_OR_TEST_SYSTEM: human dOR (Homo sapiens (Human), UniProt P41143)
# Sequence (P41143 whole entry): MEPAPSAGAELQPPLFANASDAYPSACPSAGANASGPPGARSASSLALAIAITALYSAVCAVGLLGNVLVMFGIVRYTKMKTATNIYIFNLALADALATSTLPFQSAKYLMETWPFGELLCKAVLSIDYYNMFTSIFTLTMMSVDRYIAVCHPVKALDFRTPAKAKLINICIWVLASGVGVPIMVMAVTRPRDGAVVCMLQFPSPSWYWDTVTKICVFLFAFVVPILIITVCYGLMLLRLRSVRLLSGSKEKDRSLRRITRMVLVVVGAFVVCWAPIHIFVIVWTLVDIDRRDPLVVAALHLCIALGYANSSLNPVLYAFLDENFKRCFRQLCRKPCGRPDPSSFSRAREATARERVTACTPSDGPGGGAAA
# EXPERIMENTAL_PROTOCOL: cell-based
# STATED_CONDITIONS: dOR cAMP Agonist Assay EC50, CHO Tag-lite human dOR stable cell line; forskolin
READOUT_TYPE: EC50

Observe how each entry below is paired with its result.
Cc1ncc([C@@H](CC(=O)NC[C@H](Cc2ccc(C(N)=O)c(F)c2Cl)N(C)C)C2(C(F)(F)F)CC2)cn1; 300 to 3000 nM
CC(C)C[C@H](CC(=O)NC[C@H](Cc1ccc(C(N)=O)cc1)N(C)C)c1ccccc1; < 300 nM
CN(C)[C@H](CNC(=O)C[C@@H](c1ccccc1)C(C)(C)C)Cc1ccc(C(N)=O)cc1 [Compound 93]; < 300 nM
CN1Cc2cc(O)ccc2C[C@H]1CNC(=O)C[C@H](c1ccccc1)C(C)(C)C; < 300 nM

The record that follows has no EC50 shown yet.
stdin: For the molecule Cc1cc(C(N)=O)cc(C)c1C[C@@H](CNC(=O)C[C@@H](c1ccccc1)C1(C(F)(F)F)CC1)N(C)C , what EC50 is on record?
stdout: < 300 nM
